# Tested on: HCT-116
# experimentDescription: Inhibition of cell migration in human HCT-116 cells assessed as intercellular distance at 5 nM by inverted phase-contrast microscopic analysis (reference value: 2.5 +/- 0.7 millimeter)
# Assay type: functional
Please go through the items and note down their Activity.
Answer with a number only, understood to be in mm.

Ask: Entry CC[C@@]1(O)C(=O)OCc2c1cc1n(c2=O)Cc2c-1nc1cc3c(cc1c2-c1ccc(C(F)(F)F)cc1)OCO3 , system HCT-116: what Activity was measured?
Reply: 2.6

Ask: Requested read-out Activity, target or system HCT-116, entry CCc1ccc(-c2c3c(nc4cc5c(cc24)OCO5)-c2cc4c(c(=O)n2C3)COC(=O)[C@]4(O)CC)cc1
Reply: 2.6

Ask: // lookup Activity | system=HCT-116 | key= CC[C@@]1(O)C(=O)OCc2c1cc1n(c2=O)Cc2c-1nc1cc3c(cc1c2-c1ccc(OC)cc1)OCO3
Reply: 2.8

Ask: API: value(readout= Activity, system= HCT-116, query= CC[C@@]1(O)C(=O)OCc2c1cc1n(c2=O)Cc2cc3cc4c(cc3nc2-1)OCO4 )
Reply: 2.6

Ask: Please tell me: Activity of CC[C@@]1(O)C(=O)OCc2c1cc1n(c2=O)Cc2c-1nc1cc3c(cc1c2-c1cc(OC)cc(OC)c1)OCO3 , system HCT-116?
Reply: 2.7

* * *

# Tested on: HCT-116
# experimentDescription: Induction of apoptosis in human HCT-116 cells assessed as downregulation of ATIC gene expression at 10 to 500 nM incubated for 6 to 48 hrs by RNA analysis
# Format: functional, cell-based
# conditionSummary: dose 10-500 nM, time 6-48 hrs
Active and inactive are the calls of the source. No cut-off for these calls is given here.
endpointLabel: Activity

[[record]]
compound = "CC[C@@]1(O)C(=O)OCc2c1cc1n(c2=O)Cc2c-1nc1cc3c(cc1c2-c1cc(OC)cc(OC)c1)OCO3"
resultvalue = "Active"

[[record]]
compound = "CCc1ccc(-c2c3c(nc4cc5c(cc24)OCO5)-c2cc4c(c(=O)n2C3)COC(=O)[C@]4(O)CC)cc1"
resultvalue = "Active"

[[record]]
compound = "CC[C@@]1(O)C(=O)OCc2c1cc1n(c2=O)Cc2c-1nc1cc3c(cc1c2-c1ccc(OC)cc1)OCO3"
resultvalue = "Active"

[[record]]
compound = "CC[C@@]1(O)C(=O)OCc2c1cc1n(c2=O)Cc2cc3cc4c(cc3nc2-1)OCO4"
resultvalue = "Active"


* * *

# System: HCT-116
# experimentDescription: Induction of apoptosis in human HCT-116 cells assessed as downregulation of SEH1L gene expression at 10 to 500 nM incubated for 6 to 48 hrs by RNA analysis
# Format: functional, cell-based
# conditionSummary: dose 10-500 nM, time 6-48 hrs
The source made the active and inactive calls. The calls are words filed in the database; no cut-off is given here.
endpointLabel: Activity

[[record]]
compound = "CC[C@@]1(O)C(=O)OCc2c1cc1n(c2=O)Cc2cc3cc4c(cc3nc2-1)OCO4"
resultvalue = "Active"

[[record]]
compound = "CC[C@@]1(O)C(=O)OCc2c1cc1n(c2=O)Cc2c-1nc1cc3c(cc1c2-c1cc(OC)cc(OC)c1)OCO3"
resultvalue = "Active"

[[record]]
compound = "CC[C@@]1(O)C(=O)OCc2c1cc1n(c2=O)Cc2c-1nc1cc3c(cc1c2-c1ccc(OC)cc1)OCO3"
resultvalue = "Active"

[[record]]
compound = "CCc1ccc(-c2c3c(nc4cc5c(cc24)OCO5)-c2cc4c(c(=O)n2C3)COC(=O)[C@]4(O)CC)cc1"
resultvalue = "Active"


* * *

# Tested on: MCF7
# experimentDescription: Growth inhibition of human MCF7 cells incubated for 48 hrs by MTT reagent based ELISA reader analysis
# Type: functional, cell-based
# conditionSummary: MCF7, 48 h
Exercise: state measured log10 IC50 for each of the compounds provided.
Scale: log10; quantity: IC50; unit before log: nM

Ask: Field: log10 IC50 (MCF7). Entry: CC[C@@]1(O)C(=O)OCc2c1cc1n(c2=O)Cc2c-1nc1cc3c(cc1c2-c1cccc(OC(C)C)c1)OCO3
Reply: 1.81

Ask: Give the reported log10 IC50 for CC[C@@]1(O)C(=O)OCc2c1cc1n(c2=O)Cc2c-1nc1cc3c(cc1c2-c1cccc(C)c1)OCO3 (system: MCF7).
Reply: 1.59

Ask: Hi! What's the reported log10 IC50 for CC[C@@]1(O)C(=O)OCc2c1cc1n(c2=O)Cc2c-1nc1cc3c(cc1c2-c1ccc(C(C)C)cc1)OCO3 on MCF7?
Reply: 2.09

Ask: // fetch MCF7 log10 IC50 for CC[C@@]1(O)C(=O)OCc2c1cc1n(c2=O)Cc2cc3c(-c4cccc(SC)c4)c4c(cc3nc2-1)OCO4
Reply: 1.99

Ask: Form field - read-out: log10 IC50; system: MCF7; submitted item: CCSc1ccc(-c2c3c(nc4cc5c(cc24)OCO5)-c2cc4c(c(=O)n2C3)COC(=O)[C@]4(O)CC)cc1
Reply: 1.86

Ask: Given the entry CC[C@@]1(O)C(=O)OCc2c1cc1n(c2=O)Cc2cc3c(-c4ccc(OC(C)C)cc4)c4c(cc3nc2-1)OCO4 , what log10 IC50 was observed with MCF7?
Reply: 2.78

Ask: Test system MCF7; read-out log10 IC50; what value for CC[C@@]1(O)C(=O)OCc2c1cc1n(c2=O)Cc2c-1nc1cc3c(cc1c2-c1ccc([Si](C)(C)C)cc1)OCO3 ?
Reply: 2.94

Ask: Look up log10 IC50 with MCF7 for this compound: CC[C@@]1(O)C(=O)OCc2c1cc1n(c2=O)Cc2cc3c(-c4cccc(OC(C)C)c4)c4c(cc3nc2-1)OCO4
Reply: 2.17

Ask: Notebook: pull reported log10 IC50 for MCF7, entry CCCCOc1ccc(-c2c3c(cc4nc5c(cc24)Cn2c-5cc4c(c2=O)COC(=O)[C@]4(O)CC)OCO3)cc1
Reply: 2.54

Ask: Can you look up log10 IC50 on MCF7 for CC[C@@]1(O)C(=O)OCc2c1cc1n(c2=O)Cc2c-1nc1cc3c(cc1c2-c1ccc(SC)cc1)OCO3 ?
Reply: 1.73

Ask: # query: log10 IC50 | item CCOc1cccc(-c2c3c(cc4nc5c(cc24)Cn2c-5cc4c(c2=O)COC(=O)[C@]4(O)CC)OCO3)c1 | system: MCF7
Reply: 2.19

Ask: What is its log10 IC50 for MCF7? Entry: CC[C@@]1(O)C(=O)OCc2c1cc1n(c2=O)Cc2cc3c(-c4ccc(OC)cc4)c4c(cc3nc2-1)OCO4
Reply: 2.21

Ask: Request body: readout log10 IC50, system MCF7, query CC[C@@]1(O)C(=O)OCc2c1cc1n(c2=O)Cc2c-1nc1cc3c(cc1c2-c1ccc(OC)cc1)OCO3 . Return the value.
Reply: 1.66

* * *

# Tested on: HCT-116
# experimentDescription: Induction of apoptosis in human HCT-116 cells assessed as downregulation of LIPE gene expression at 10 to 500 nM incubated for 6 to 48 hrs by RNA analysis
# Format: functional, cell-based
# conditionSummary: dose 10-500 nM, time 6-48 hrs
Active and inactive are the calls of the source. No cut-off for these calls is given here.
endpointLabel: Activity

[[record]]
compound = "CCc1ccc(-c2c3c(nc4cc5c(cc24)OCO5)-c2cc4c(c(=O)n2C3)COC(=O)[C@]4(O)CC)cc1"
endpointlabel = "Activity"
resultvalue = "Active"

[[record]]
compound = "CC[C@@]1(O)C(=O)OCc2c1cc1n(c2=O)Cc2c-1nc1cc3c(cc1c2-c1cc(OC)cc(OC)c1)OCO3"
endpointlabel = "Activity"
resultvalue = "Active"

[[record]]
compound = "CC[C@@]1(O)C(=O)OCc2c1cc1n(c2=O)Cc2c-1nc1cc3c(cc1c2-c1ccc(OC)cc1)OCO3"
endpointlabel = "Activity"
resultvalue = "Active"

[[record]]
compound = "CC[C@@]1(O)C(=O)OCc2c1cc1n(c2=O)Cc2cc3cc4c(cc3nc2-1)OCO4"
endpointlabel = "Activity"
resultvalue = "Active"


* * *

# Test system: HCT-116
# experimentDescription: Activation of innate immune response in human HCT-116 cells assessed as upregulation of IL-12RB2 gene expression at 10 to 500 nM incubated for 6 to 48 hrs by RNA analysis
# Type: functional, cell-based
# conditionSummary: dose 10-500 nM, time 6-48 hrs
Active and inactive are the calls of the source. The calls are words filed in the database; no cut-off is given here.
endpointLabel: Activity

[[record]]
compound = "CC[C@@]1(O)C(=O)OCc2c1cc1n(c2=O)Cc2cc3cc4c(cc3nc2-1)OCO4"
resultvalue = "Active"

[[record]]
compound = "CCc1ccc(-c2c3c(nc4cc5c(cc24)OCO5)-c2cc4c(c(=O)n2C3)COC(=O)[C@]4(O)CC)cc1"
resultvalue = "Active"

[[record]]
compound = "CC[C@@]1(O)C(=O)OCc2c1cc1n(c2=O)Cc2c-1nc1cc3c(cc1c2-c1cc(OC)cc(OC)c1)OCO3"
resultvalue = "Active"

[[record]]
compound = "CC[C@@]1(O)C(=O)OCc2c1cc1n(c2=O)Cc2c-1nc1cc3c(cc1c2-c1ccc(OC)cc1)OCO3"
resultvalue = "Active"

